# System: bile acid sulfate sulfatase
# Test: Inhibition and activation of the present Enzyme by additives
# Format: biochemical, Pseudomonas testosteroni
# Condition Label: effect of the substance on the present Enzyme
Measured Metric: Inhibition and activation (in words)

O=C(O)CN(CCN(CC(=O)O)CC(=O)O)CC(=O)O
inhibited
c1cnc2c(c1)ccc1cccnc12
inhibited
